assay: Metabolic stability assessed as half life in human liver microsome
Assay type: ADME
condition_info: liver microsomes
Note to self: class = bucket of half-life, per 0 (below 6 min), 1 (6 min to below 7 min), 2 (7 min or more)

For orientation, consider the following solved cases.
CC(=O)N1CCC(NC(=O)c2cc3cc(Cl)ccc3[nH]2)C(NC(=O)c2nc3c(s2)CN(C)CC3)C1 (racemic) :: 1
CCNC(=O)N1CCC(NC(=O)c2cc3cc(Cl)ccc3[nH]2)C(NC(=O)c2nc3c(s2)CN(C)CC3)C1 (racemic) :: 2
CC(C)C(=O)N1CCC(NC(=O)c2cc3cc(Cl)ccc3[nH]2)C(NC(=O)c2nc3c(s2)CN(C)CC3)C1 (racemic) :: 1

Which bin, given its half-life, does CN1CCc2nc(C(=O)N[C@@H]3CCCC[C@@H]3NC(=O)c3cc4cc(Cl)ccc4[nH]3)sc2C1 occupy?
1

Would you mind doing COCC(=O)N1CCC(NC(=O)c2cc3cc(Cl)ccc3[nH]2)C(NC(=O)c2nc3c(s2)CN(C)CC3)C1 (racemic) as well?
2

Next entry: CN1CCc2nc(C(=O)NC3CN(C(=O)OC(C)(C)C)CCC3NC(=O)c3cc4cc(Cl)ccc4[nH]3)sc2C1 (racemic)
0

// next record CCOC(=O)N1CCC(NC(=O)c2cc3cc(Cl)ccc3[nH]2)C(NC(=O)c2nc3c(s2)CN(C)CC3)C1 (racemic)
0

Proceed to CN1CCc2nc(C(=O)NC3CN(C(=O)N(C)C)CCC3NC(=O)c3cc4cc(Cl)ccc4[nH]3)sc2C1 (racemic)
1

For CN1CCc2nc(C(=O)NC3CN(C(=O)NC(C)(C)C)CCC3NC(=O)c3cc4cc(Cl)ccc4[nH]3)sc2C1 (racemic) then?
1

Then this compound: CN1CCc2nc(C(=O)NC3CCCCC3NC(=O)c3cc4cc(Cl)ccc4[nH]3)sc2C1 (racemic)
2

Can you handle CN1CCc2nc(C(=O)NC3CN(C(=O)CO)CCC3NC(=O)c3cc4cc(Cl)ccc4[nH]3)sc2C1 (racemic) next?
2

* * *

// values below are reported pIC50
measured_on: Coagulation factor X (Homo sapiens, UniProt P00742)
Sequence (P00742 41-179 limits assumed): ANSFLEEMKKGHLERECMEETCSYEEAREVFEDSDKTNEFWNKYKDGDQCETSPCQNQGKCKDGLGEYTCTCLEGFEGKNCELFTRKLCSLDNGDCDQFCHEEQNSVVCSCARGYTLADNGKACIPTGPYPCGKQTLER
Sequence (P00742 235-488 limits assumed): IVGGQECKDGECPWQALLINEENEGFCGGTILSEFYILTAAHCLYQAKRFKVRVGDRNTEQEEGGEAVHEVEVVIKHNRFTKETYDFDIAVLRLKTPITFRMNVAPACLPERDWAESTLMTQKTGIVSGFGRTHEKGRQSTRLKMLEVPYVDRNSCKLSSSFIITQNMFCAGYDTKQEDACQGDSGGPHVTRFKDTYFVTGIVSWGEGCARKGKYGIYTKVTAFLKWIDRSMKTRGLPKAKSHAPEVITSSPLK
assay: Inhibition of human factor 10a
Scale: pIC50 equals -log10([C]), with [C] in mol/L.

Study these solved cases before continuing.
CN1CCc2nc(C(=O)NC3CCN(S(C)(=O)=O)CC3NC(=O)c3cc4cc(Cl)ccc4[nH]3)sc2C1 (racemic) :: 7.35
CCOC(=O)N1CCC(NC(=O)c2cc3cc(Cl)ccc3[nH]2)C(NC(=O)c2nc3c(s2)CN(C)CC3)C1 (racemic) :: 8.35
CCNC(=O)N1CC[C@H](NC(=O)c2cc3cc(Cl)ccc3[nH]2)[C@H](NC(=O)c2nc3c(s2)CN(C)CC3)C1 :: 8.11

// next entry
Report pIC50 for CN1CCc2nc(C(=O)NC3CN(C(=O)OC(C)(C)C)CCC3NC(=O)c3cc4cc(Cl)ccc4[nH]3)sc2C1 (racemic) please.
8.00

* * *

assay: Solubility in japanese pharmacopoeia second fluid at pH 6.8
Assay type: physicochemical
Note to self: values exactly at 200 µg/mL are yes. So solubility at or above 200 µg/mL is yes, below is no.

A selection of reference data follows.
CN1CCc2nc(C(=O)NC3CN(C(=O)OC(C)(C)C)CCC3NC(=O)c3cc4cc(Cl)ccc4[nH]3)sc2C1 (racemic) :: no
CN1CCc2nc(C(=O)NC3CNCCC3NC(=O)c3cc4cc(Cl)ccc4[nH]3)sc2C1 (racemic) :: yes
COCC(=O)N1CC[C@H](NC(=O)c2cc3cc(Cl)ccc3[nH]2)[C@H](NC(=O)c2nc3c(s2)CN(C)CC3)C1 :: yes
CN1CCc2nc(C(=O)N[C@@H]3CN(C(=O)CO)CC[C@@H]3NC(=O)c3cc4cc(Cl)ccc4[nH]3)sc2C1 :: yes
CN1CCc2nc(C(=O)NC3CCCCC3NC(=O)c3cc4cc(Cl)ccc4[nH]3)sc2C1 (racemic) :: no
CCOC(=O)N1CCC(NC(=O)c2cc3cc(Cl)ccc3[nH]2)C(NC(=O)c2nc3c(s2)CN(C)CC3)C1 (racemic) :: no
CCNC(=O)N1CC[C@H](NC(=O)c2cc3cc(Cl)ccc3[nH]2)[C@H](NC(=O)c2nc3c(s2)CN(C)CC3)C1 :: yes

Now for another entry.
Check if solubility >= 200 µg/mL (inclusive). Item: CN1CCc2nc(C(=O)NC3CCNCC3NC(=O)c3cc4cc(Cl)ccc4[nH]3)sc2C1 (racemic)
yes
